test: Pharmacokinetics after intravenous and oral administration in rats; assay type: in vivo, rat; settings: rat, plasma, iv dosing, dose 1 mg/kg
testReadout: half-life (h)
Give just the number in h; leave the unit off.

- molecule: "CC[C@H](Nc1ncnc(N)c1-c1nc(C)no1)c1nc2cccc(F)c2c(=O)n1C1CC1 [Ex. 23]"
  half-life, h: 0.94
- molecule: "CCc1noc(-c2c(N)ncnc2N[C@@H](CC)c2nc3cccc(Cl)c3c(=O)n2C2CC2)n1 [Ex. 56]"
  half-life, h: 1.73
- molecule: "CC[C@H](Nc1ncnc(N)c1-c1ccn(C)n1)c1nc2cccc(Cl)c2c(=O)n1C1CC1 [Ex. 51]"
  half-life, h: 1.91
- molecule: "CC[C@H](Nc1ncnc(N)c1-c1noc(C)n1)c1nc2cccc(F)c2c(=O)n1C1CC1 [Ex. 16]"
  half-life, h: 0.76
- molecule: "CC(C)c1nc(-c2c(N)ncnc2N[C@@H](C)c2nc3cccc(Cl)c3c(=O)n2C2CC2)no1 [Ex. 59]"
  half-life, h: 1.92

Answer with reported half-life of CC[C@H](Nc1ncnc(N)c1-c1nc(C)no1)c1nc2cccc(F)c2c(=O)n1-c1ccccc1 [Ex. 39]
0.95
